Assay: AUC in Sprague-Dawley rat at 30 mg/kg, po QD measured on day 1
Assay type: ADME, organism-based
Details: in vivo
Measurement label: AUC (ng·h/mL)
Return type: number; implicit unit ng·h/mL.

Examples from the recorded data:
Chemical structure: CC(C)Oc1ccc(-c2nc(-c3ccc4c(c3)CCN(C(CO)CO)CC4)no2)cc1C#N
Unit tag: ng·h/mL
AUC: 23000
--
Chemical structure: Cc1c(-c2noc(-c3ccc(OC(C)C)c(C#N)c3)n2)ccc2c1CCN(C(CO)CO)C2
Unit tag: ng·h/mL
AUC: 4420
--
Chemical structure: Cc1c(-c2noc(-c3ccc(OC(C)C)c(C#N)c3)n2)ccc2c1CCN(C[C@@H](O)CO)C2
Unit tag: ng·h/mL
AUC: 7310

Please turn your attention to the following entry.
*Q* AUC lookup needed for Cc1c(-c2noc(-c3ccc(OC(C)C)c(C#N)c3)n2)ccc2c1CCN(C[C@H](O)CO)C2 , thanks.
*A* 4440

---

Test system: CYP1A2
Assay: Induction of CYP1A2 mRNA expression in Sprague-Dawley rat hepatic microsomes at 25 mg/kg, po QD for 4 days relative to control
Type: ADME, organism-based, Liver
Details: read-out: FC
The following molecules are listed with their measured fold induction at 96 h values.

Chemical structure: Cc1c(-c2noc(-c3ccc(OC(C)C)c(C#N)c3)n2)ccc2c1OCCN(C(CO)CO)C2
Target or system: CYP1A2
fold induction at 96 h: 2

*Q* fold induction at 96 h lookup needed for Cc1c(-c2noc(-c3ccc(OC(C)C)c(C#N)c3)n2)ccc2c1CCN(C[C@H](O)CO)CC2 , thanks.
*A* 2.2

---

System: CYP1A1
Assay: Induction of CYP1A1 mRNA expression in rat hepatic microsomes at 30 mg/kg, po QD for 7 days relative to control
Format: ADME, organism-based, Liver
Details: read-out: FC
The following compounds are listed with their measured fold induction at 168 h values.

Examples from the recorded data:
Chemical structure: CC(C)Oc1ccc(-c2nc(-c3ccc4c(c3)CCN(CCCC(=O)O)CC4)no2)cc1C#N
fold induction at 168 h: 210
//
Chemical structure: Cc1c(-c2noc(-c3ccc(OC(C)C)c(C#N)c3)n2)ccc2c1CCN(CCC(=O)O)C2
fold induction at 168 h: 3
//
Chemical structure: CC(C)Oc1ccc(-c2nc(-c3cccc4c3cnn4CCC(=O)O)no2)cc1Cl
fold induction at 168 h: 35

*Q* fold induction at 168 h lookup needed for CC(C)Oc1ccc(-c2nc(-c3cccc4c3OCCN(CCCC(=O)O)C4)no2)cc1Cl , thanks.
*A* 75

---

Assay: Volume of distribution at steady state in CD rat at 1 mg/kg, iv
Format: ADME, organism-based
Details: in vivo, read-out: Vdss
The following molecules are listed with their measured Vd values.
Your answer should be a number followed by the unit of measure.

Examples from the recorded data:
Chemical structure: Cc1c(-c2noc(-c3ccc(OC(C)C)c(C#N)c3)n2)ccc2c1OCCN(C(CO)CO)C2
Result: 4 L/kg
--
Chemical structure: CC(C)Nc1ncc(-c2nc(-c3ccc4c(c3)CCN(C(CO)CO)CC4)no2)cc1C#N
Result: 10.9 L/kg

*Q* Vd lookup needed for Cc1c(-c2noc(-c3ccc(OC(C)C)c(C#N)c3)n2)ccc2c1CCN(C[C@@H](O)CO)C2 , thanks.
*A* 6.6 L/kg
